Tested on: CEM cells HIV-1 protection, formazan growth assay
Test: NCI AIDS Antiviral Assay;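 active means compounds giving half or more protection of infected cells from virus-caused growth loss, again on retest; inactive means the rest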
Respond with a class label; see active, inactive

-- ask # lookup: test call for "CSc1nc(N)cc(C(F)(F)F)n1"
-- reply inactive

-- ask Which outcome was entered for the molecule "CSc1ccc(C(=O)C(=O)c2ccc(SC)s2)s1" in this test?
-- reply inactive

-- ask What outcome does the record of this test show for "COC(=O)Cc1cc(=O)n2c([nH]c3ccccc32)c1C#N" ?
-- reply inactive

-- ask What classification did "CCOC(=O)CCC(=O)Oc1ccc2c(c1OC(=O)CCC(=O)OCC)C(=O)c1ccccc1C2=O" end up with in this test?
-- reply inactive

-- ask Assay result, entry "Cc1ccc2nc3c(Cl)c(C)c(=O)cc-3sc2c1" — outcome?
-- reply inactive

-- ask For CCOC(=O)NC(=S)NC(C)c1ccccc1 (centres undefined) , what call appears in the results of this test?
-- reply inactive

-- ask Hi, sorry to bother you, what did the test record for "CCOC(=O)/C(=C/c1ccc(C(F)(F)F)cc1)N(CC)CC" ?
-- reply inactive

-- ask Recorded test call requested for O=[N+]([O-])c1ccc(C2CC(c3ccc(NCc4nc5ccccc5[nH]4)cc3)=NO2)cc1 (centres undefined)
-- reply inactive

-- ask Any idea what this test logged for "COc1ccc(Cl)cc1C(=O)c1cc(Cl)cc(S(=O)(=O)N(C)C)c1OC" ?
-- reply inactive

-- ask Which outcome was entered for the molecule "O=c1c2cccc3cccc(c4n1CCN=4)c32" in this test?
-- reply inactive

* * *

Here the recorded IC50 is given for each entry.
Tested on: CEM cells HIV-1 protection, formazan growth assay
Assay: NCI AIDS Antiviral Assay
Settings: measured here: growth of uninfected CEM cells
Dear colleague, please return just the value in µM, with no unit written.

Here are 2 compounds together with their reported answers.
COMPOUND: Cc1ccc(-c2c(C#N)c(S)n(NS(=O)(=O)c3ccc(C)cc3)c(=O)c2C#N)cc1
MEASUREMENT TYPE: IC50
RECORDED NUMBER: 11.7
//
COMPOUND: Cc1ccc(S(=O)(=O)N/N=C/C2(c3ccccc3)c3ccccc3-c3ccccc32)cc1
MEASUREMENT TYPE: IC50
RECORDED NUMBER: 11.2

"O=C1CCCC/C1=C\c1ccc([N+](=O)[O-])cc1" yielded IC50 of 6.03

So for Cc1ccc(C)n1-c1ccccc1C1C=Cn2c(=O)nnc3c(OC(C)C)c(OC(C)C)c(O)c1c32 (stereo not given) , the logged IC50 turned out to be 25.7

Note to self: IC50 recorded for "Nc1cc2c3c(c1)Oc1cc(N)cc4c1C3c1c(cc(N)cc1O4)O2" was 23.4

* * *

System: CEM cells HIV-1 protection, formazan growth assay
Assay: NCI AIDS Antiviral Assay
pEC50: −log10 of the molar value.
Measured pEC50, listed per entry for reference.

Would you please look over these solved cases?
MOLECULE: N#Cc1cn(-c2c3ccccc3nc3ccccc23)c(=O)[nH]c1=O
RESULT: < 3.67
//
MOLECULE: C[C@@H](c1ccccc1)N(CC#N)[C@H]1CCC[C@]1(O)/C=C/c1ccc2c(c1)OCO2
RESULT: < 4.30
//
MOLECULE: C1CSCCSS[C@@H]2CCCCC2SC1 (stereo partly specified)
RESULT: < 4.47
//
MOLECULE: Cc1cc(=O)oc2c(CNC(Cc3ccccc3)C(=O)O)c(O)ccc12 (stereo unspecified)
RESULT: < 3.70
//
MOLECULE: N#C/C(=C1/c2cc([N+](=O)[O-])ccc2-c2c1cc([N+](=O)[O-])cc2[N+](=O)[O-])N1CCCCC1
RESULT: < 3.70

Entry "COC(=O)C1=C(C(=O)OC)NC2=C(C=N1)CCC2" , pEC50 reported as < 3.42

* * *

System: CEM cells HIV-1 protection, formazan growth assay
Assay: NCI AIDS Antiviral Assay;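 active means compounds giving half or more protection of infected cells from virus-caused growth loss, again on retest; inactive means the rest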
API: response.call in active, inactive

Solved entries:
COMPOUND: COC(=O)CN1C(=O)c2cccc3cc(N)cc(c23)C1=O
ASSIGNED LABEL: inactive

COMPOUND: O=C(O)c1cc(C(c2ccc(O)c(C(=O)O)c2)c2ccc(O)c(C(=O)O)c2)ccc1O
ASSIGNED LABEL: active

COMPOUND: COC(=O)C(C(=O)C(=O)Nc1ccc(OC)cc1[N+](=O)[O-])c1nc2cc(C)c(C)cc2[nH]c1=O (stereo unspecified)
ASSIGNED LABEL: inactive

COMPOUND: Cc1ccsc1/C=N/Nc1ccc2ccccc2n1
ASSIGNED LABEL: inactive

COMPOUND: COc1ccc(OC)c(NC2=NCCO2)c1
ASSIGNED LABEL: inactive

-- ask Could you please tell me the result logged for "Cc1c(/C=N/NC(=S)N2CCCCC2)c(=O)n(-c2ccccc2)n1C" in this assay?
-- reply inactive

* * *

System: CEM cells HIV-1 protection, formazan growth assay
Test: NCI AIDS Antiviral Assay;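 active means compounds giving half or more protection of infected cells from virus-caused growth loss, again on retest; inactive means the rest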
Form entry, call: pick from active, inactive

COMPOUND: CN1CCN(CCCCN2c3ccccc3Sc3ccc(C(=O)c4ccccc4)cc32)CC1
ASSIGNED LABEL: inactive
//
COMPOUND: O=C(NCCN(CCNC(=O)c1cccc(=O)n1O)CCNC(=O)c1cccc(=O)n1O)c1cccc(=O)n1O
ASSIGNED LABEL: inactive

-- ask So what was the verdict on Nc1ccc(S(=O)Cc2ccc(C(=O)O)cc2[N+](=O)[O-])cc1 (configuration not stated) in this test?
-- reply inactive

-- ask Give the logged outcome of this assay for the following compound: "CCOC(=O)C(=Cc1ccc(-c2ccccc2)cc1)C(=O)OCC"
-- reply inactive

-- ask Please let me know the test result on file for CCC12CCCNC1c1c(n(C)c3ccccc13)C(C(=O)OC)C2 (configuration not stated) .
-- reply inactive

-- ask Called result for "CN(C)/C=N\c1ccnc(=O)[nH]1"
-- reply inactive

-- ask # fetch the recorded call for "O=C(NCO)NCOCn1c(=O)n(CO)c(=O)n(CO)c1=O" here
-- reply inactive

* * *

System: CEM cells HIV-1 protection, formazan growth assay
Assay: NCI AIDS Antiviral Assay
Settings: measured here: growth of uninfected CEM cells
MEASUREMENT TYPE: IC50 (µM)
Write the number in µM without appending the unit.

COMPOUND: NC(=O)NC1=NCCC(=O)N1CCc1c[nH]c2ccccc12
STUDY SYSTEM: CEM cells HIV-1 protection, formazan growth assay
MEASUREMENT TYPE: IC50
RECORDED NUMBER: 12.3

Lookup result for CC1=CC2=C(C#N)C(=O)OC2(C)C(c2ccccc2)C1 (stereo unspecified) ; measured IC50: 117

* * *

System: CEM cells HIV-1 protection, formazan growth assay
Test: NCI AIDS Antiviral Assay
pEC50: −log10 of the molar value.
Listing of recorded pEC50 by entry.

Sample answers from the record:
COMPOUND: N#Cc1cccc(C=C2C(=O)c3ccccc3C2=O)c1
pEC50: < 4.44
--
COMPOUND: COC(=O)C1=C(C)NC2=C(C(=O)c3ccccc32)C1c1cn[nH]c1-c1ccccc1 (centres undefined)
pEC50: < 4.70
--
COMPOUND: S=C(Cc1ccc2c(c1)Sc1ccccc1O2)N1CCOCC1
pEC50: < 3.70
--
COMPOUND: O=C(Nc1ccc([N+](=O)[O-])cc1[N+](=O)[O-])C(=O)C(C(=O)c1ccc2ccccc2c1)C1OC(=O)c2ccccc21 (centres undefined)
pEC50: < 4.18
--
COMPOUND: [Cl][Cu][Cl]
pEC50: < 3.70

Okay, next one:
Reported pEC50 for "CN(C)N1C(=O)c2c(Cl)c(Cl)c(Cl)c(Cl)c2C1=O" was < 3.70

* * *

Tested on: CEM cells HIV-1 protection, formazan growth assay
Test: NCI AIDS Antiviral Assay
pEC50: −log10 of the molar value.
Let's look at some compounds and their measured pEC50.

Here's what some known entries look like.
COMPOUND: CC(=O)NC1=C(C)C(=O)c2c(nc3n2CCC3OC(=O)CCl)C1=O (stereo unspecified)
pEC50: < 3.70
--
COMPOUND: CC1CCCC/C1=N/NS(=O)(=O)c1ccc(N)cc1 (stereo unspecified)
pEC50: < 3.62
--
COMPOUND: Cc1ccc(NC(=O)C(=O)C2C(=O)NC(=O)NC2=O)c(C)c1
pEC50: < 3.08
--
COMPOUND: N#CC12CC=C(c3ccccc3)N=C1NC(c1ccccc1)=CC2 (stereo unspecified)
pEC50: < 3.70
--
COMPOUND: CCOC(=O)C(=O)Nc1ccc(Cl)cc1C
pEC50: < 3.41

Let us examine a further case.
Consider "NNc1ccc2cc(S(=O)(=O)O)cc(S(=O)(=O)O)c2c1" . Its measured pEC50 is < 3.13

* * *

Tested on: CEM cells HIV-1 protection, formazan growth assay
Assay: NCI AIDS Antiviral Assay
Details: measured here: growth of uninfected CEM cells
pIC50: −log10 of the molar value.
Criterion: pIC50 meeting or surpassing 5. Met: yes. Not met: no.

Sample answers from the record:
MOLECULE: COC(=O)c1ccc(CSc2ccccc2)cc1
ASSIGNED LABEL: no
//
MOLECULE: NC(N)=NS(=O)(=O)c1ccc(NNc2c3ccccc3nc3c(C(=O)Nc4ccc(S(=O)(=O)N=C(N)N)cc4)cccc23)cc1
ASSIGNED LABEL: no
//
MOLECULE: C=C1C(=O)O[C@H]2C3C(=C(C)CC[C@@H]12)C(=O)[C@@H]1OC31C (stereo partly specified)
ASSIGNED LABEL: yes

-- ask Kindly determine if pIC50 recorded for Cc1ccc(S(=O)(=O)ON/N=C2/C3OC3[C@@H]3CCCC[C@H]23)cc1 (stereo partly specified) is above or exactly 5.
-- reply no

-- ask Does "CN(C)C(=S)/N=c1\ss/c(=N\C(=S)N(C)C)n1-c1ccccc1" have a reported pIC50 of at least 5?
-- reply no

-- ask Could you verify whether the entry "CN1C(=O)C2(Nc3ccccc3N2)c2ccccc21" shows pIC50 of no less than 5?
-- reply no

-- ask Test whether the molecule "COc1ccc2nc3c4ccccc4scc-3c2c1" records pIC50 of 5 or higher.
-- reply yes

-- ask Hi team, for CC(C)c1ccc(C2NC(=S)NC3=C2c2ccccc2C3=O)cc1 (stereo unspecified) , is the recorded pIC50 at or above 5?
-- reply no

-- ask Could you tell me if the measured pIC50 of "CN(N)c1ncnc2c1cnn2C" reaches 5 or more?
-- reply no

-- ask Reported pIC50 at or above 5? COc1ccc2c(c1)CCCN1Cc3cc(OC)c(OC)cc3CC21 (stereo unspecified)
-- reply no

-- ask Is reported pIC50 greater than or equal to 5 here: CCCSc1nc(-c2ccc(OC)cc2)c(C#N)c(=O)n1C1OC(COC(C)=O)C(OC(C)=O)C(OC(C)=O)C1OC(C)=O (stereo unspecified)
-- reply no

-- ask Form field: pIC50 at least 5? Entry: Cc1cc2c(cc1C)C(=O)C1(C2)Cc2cc3c(cc2C1=O)CCC3 (stereo unspecified)
-- reply no

-- ask Is reported pIC50 greater than or equal to 5 here: C=C1C(=O)OC2/C=C(\C)C3OC3/C=C(/C(=O)OC)C(O)C(OC(=O)C3(C)OC3C)C12 (stereo unspecified)
-- reply yes

-- ask Is pIC50 at least 5? Consider "C/C(=N\Nc1ccc2ccccc2n1)c1ccccc1O"
-- reply yes
